Molecular target: T1, glucose-dependent insulinotropic peptide (gastric inhibitory polypeptide) receptor (GIPR), primary cAMP assay (human, UniProt P48546 22-466)
T1 sequence (looked up): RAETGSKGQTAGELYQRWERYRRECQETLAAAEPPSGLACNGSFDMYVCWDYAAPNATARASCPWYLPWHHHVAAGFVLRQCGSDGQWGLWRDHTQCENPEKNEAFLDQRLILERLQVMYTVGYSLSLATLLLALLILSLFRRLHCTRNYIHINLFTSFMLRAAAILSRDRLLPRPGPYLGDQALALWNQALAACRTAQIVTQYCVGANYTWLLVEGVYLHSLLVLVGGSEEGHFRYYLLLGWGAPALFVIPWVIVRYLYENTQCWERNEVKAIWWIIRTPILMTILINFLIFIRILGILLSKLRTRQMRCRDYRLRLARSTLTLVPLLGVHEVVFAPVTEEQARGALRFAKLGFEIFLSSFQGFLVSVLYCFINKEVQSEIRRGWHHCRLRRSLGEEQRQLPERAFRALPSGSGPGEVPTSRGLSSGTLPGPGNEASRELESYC
Assay: cell-based or functional assay
Starred links: 1 amine or outer side, 2 acyl side, 3 side chain; linkers in the order of their positions; H or OH if unused. Non-standard residues stand in square brackets, D forms with d. Groups on a side chain read outwards from the residue. Primed or numbered codes have the meaning given here. No end group written: not given here. *: point of attachment. γGlu = O=C(O)[C@H](CCC(=O)[*:2])N[*:1]; Palmitoyl = CCCCCCCCCCCCCCCC(=O)*; αMeF = C[C@](N)(Cc1ccccc1)C(=O)O; αMeK = C[C@](N)(CCCCN)C(=O)O; PEG2′ = not defined here; Aib = CC(C)(N)C(=O)O
QUANTITY_NAME: Primary assay EC50 (cAMP), n1 (nM)
Value expressed in nM; do not type the unit.

What does the data say about its Primary assay EC50 (cAMP), n1? Entry: H[Aib]EGS[αMeF]TSDVSK([PEG2′-PEG2′-γGlu-Palmitoyl])FLEGEAA[αMeK]EFIK([PEG2′-PEG2′-γGlu-Palmitoyl])FVVEGG-NH2 [SEQ ID NO: 250] 21.6

What does the data say about its Primary assay EC50 (cAMP), n1? Entry: H[Aib]EGTFTSDVSK([PEG2′-PEG2′-γGlu-Palmitoyl])YLEGEAAEEFIK([PEG2′-PEG2′-γGlu-Palmitoyl])WVVEGG-NH2 [SEQ ID NO: 242] 21.4

What does the data say about its Primary assay EC50 (cAMP), n1? Entry: H[Aib]EGS[αMeF]TSDVSK([PEG2′-PEG2′-γGlu-Palmitoyl])FLEGEAAEEFIK([PEG2′-PEG2′-γGlu-Palmitoyl])FVVEGG-NH2 [SEQ ID NO: 247] 21.6

What does the data say about its Primary assay EC50 (cAMP), n1? Entry: H[Aib]EGS[αMeF]TSDVSK([PEG2′-PEG2′-γGlu-Palmitoyl])YLEGEAA[αMeK]EFIAWK([PEG2′-PEG2′-γGlu-Palmitoyl])VEGG-NH2 [SEQ ID NO: 255] 21.5
